Task for the reader: assign each of the following compounds its reported pIC50.
Target: NAD-dependent protein deacetylase sirtuin-2 (Homo sapiens, UniProt Q8IXJ6)
Sequence (Q8IXJ6 whole entry): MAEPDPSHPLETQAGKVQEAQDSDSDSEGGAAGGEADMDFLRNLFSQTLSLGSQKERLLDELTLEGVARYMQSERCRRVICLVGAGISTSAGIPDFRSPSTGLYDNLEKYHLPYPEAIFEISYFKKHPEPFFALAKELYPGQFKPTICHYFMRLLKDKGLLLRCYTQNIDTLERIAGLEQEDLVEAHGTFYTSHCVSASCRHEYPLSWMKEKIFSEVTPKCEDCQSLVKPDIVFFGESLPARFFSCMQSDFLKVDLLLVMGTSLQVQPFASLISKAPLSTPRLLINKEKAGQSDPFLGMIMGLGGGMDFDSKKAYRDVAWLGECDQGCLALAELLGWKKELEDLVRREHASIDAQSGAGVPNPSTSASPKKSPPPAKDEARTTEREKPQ
Assay: Inhibition of human recombinant Sirt2 expressed in Escherichia coli BL21 by fluorescent deacetylase assay
Give bare numbers, as −log10 of the molar value.

// each compound listed below needs its pIC50
1. Cc1ccc2c3c(ccc2c1)OC(=O)CC3c1cccc(Br)c1 (stereo unspecified)
2. Cc1ccc(C2CC(=O)Oc3ccc4cc(Br)ccc4c32)cc1 (stereo unspecified)
3. Cc1cccc(C2CC(=O)Oc3ccc4cc(C)ccc4c32)c1 (stereo unspecified)

result:
5.01
5.82
5.36

// each compound listed below needs its pIC50
1. O=C1CC(c2cccc(F)c2)c2c(ccc3cc(Br)ccc23)O1 (stereo unspecified)
2. O=C1CC(c2ccccc2)c2c(ccc3cc(I)ccc23)O1 (stereo unspecified)
3. O=C1CC(c2ccc(F)cc2)c2c(ccc3cc(Br)ccc23)O1 (stereo unspecified)

result:
5.49
4.71
5.10

====

Target: NAD-dependent protein deacetylase sirtuin-2 (Homo sapiens) (UniProt Q8IXJ6)
Assay: Inhibition of human recombinant Sirt2 expressed in Escherichia coli BL21 at 20 uM by fluorescent deacetylase assay
observation_type: inhibition (%)
Answers are plain numbers, in %.

// solved cases for inhibition follow
CC(=O)Nc1cccc(-c2ccc3c4c(ccc3c2)OC(=O)CC4c2ccccc2)c1 (configuration not stated) | 22.2
CC(C)(C)c1ccc(C2CC(=O)Oc3ccc4cc(Br)ccc4c32)cc1 (configuration not stated) | 46.8
CC(=O)Nc1cccc(C2CC(=O)Oc3ccc4cc(C)ccc4c32)c1 (configuration not stated) | 17.1

// each molecule listed below needs its inhibition
1. O=C1CC(c2ccccc2)c2c(ccc3cc(O)ccc23)O1 (configuration not stated)
2. Cc1ccc2c3c(ccc2c1)OC(=O)CC3c1cccc(O)c1 (configuration not stated)
3. CC(=O)c1ccc2c3c(ccc2c1)OC(=O)CC3c1ccccc1 (configuration not stated)
4. COc1ccccc1C1CC(=O)Oc2ccc3cc(Br)ccc3c21 (configuration not stated)
5. O=C1CC(c2ccccc2)c2c(ccc3cc(-c4ccc5ccccc5c4)ccc23)O1 (configuration not stated)
6. O=C1CC(c2ccccc2)c2c(ccc3cc(-c4cccc(O)c4)ccc23)O1 (configuration not stated)
7. COc1cc(C2CC(=O)Oc3ccc4cc(Br)ccc4c32)ccc1C (configuration not stated)
8. O=C1CC(c2ccc(Cl)c(Cl)c2)c2c(ccc3cc(Br)ccc23)O1 (configuration not stated)

result:
1: 21.8; 2: 15.4; 3: 24; 4: 17.4; 5: 15.1; 6: 37.5; 7: 6.3; 8: 42.3

// each molecule listed below needs its inhibition
1. O=C1CC(c2ccccc2)c2c(ccc3cc(-c4cccnc4)ccc23)O1 (configuration not stated)
2. O=C1CC(c2ccc(Cl)cc2)c2c(ccc3cc(Br)ccc23)O1 (configuration not stated)

result:
[18.4, 28.5]

// each molecule listed below needs its inhibition
1. COc1cc(C2CC(=O)Oc3ccc4cc(C)ccc4c32)ccc1C (configuration not stated)
2. O=C1CC(c2ccccc2)c2c(ccc3cc(-c4ccc(-c5ccccc5)cc4)ccc23)O1 (configuration not stated)
3. Cc1ccc2c3c(ccc2c1)OC(=O)CC3c1ccc(-c2ccccc2)cc1 (configuration not stated)
4. Cc1ccc2c3c(ccc2c1)OC(=O)CC3c1ccc(Cl)cc1 (configuration not stated)

result:
9.2
20.6
28.3
26.7

====

Biological target: NAD-dependent protein deacetylase sirtuin-2 (Homo sapiens, UniProt Q8IXJ6)
Assay: Inhibition of human recombinant Sirt2 expressed in Escherichia coli BL21 by fluorescent deacetylase assay
Task for the reader: assign each of the following compounds its reported IC50.
A complete answer gives the number and then names the unit.

// solved cases for IC50 follow
Cc1ccc(C2CC(=O)Oc3ccc4cc(Br)ccc4c32)cc1F (stereo not given) | 2 µM
Cc1ccc2c3c(ccc2c1)OC(=O)CC3c1ccc(C)c(F)c1 (stereo not given) | 3.4 µM
Cc1ccc(C2CC(=O)Oc3ccc4cc(Br)ccc4c32)cc1Cl (stereo not given) | 2.3 µM
O=C1CC(c2ccccc2)c2c(ccc3cc(Br)ccc23)O1 (stereo not given) | 5.2 µM
O=C1CC(c2cccc(Br)c2)c2c(ccc3cc(Br)ccc23)O1 (stereo not given) | 10.1 µM
Cc1ccc2c3c(ccc2c1)OC(=O)C[C@@H]3c1ccccc1 | 3.4 µM
O=C1CC(c2ccccc2)c2c(ccc3cc(Br)ccc23)N1 (stereo not given) | 6.4 µM
Cc1ccc([C@H]2CC(=O)Oc3ccc4cc(C)ccc4c32)cc1 | 1 µM
O=C1CC(c2ccc(F)c(F)c2)c2c(ccc3cc(Br)ccc23)O1 (stereo not given) | 19.7 µM
Cc1ccc(C2CC(=O)Oc3ccc4cc(C)ccc4c32)cc1 (stereo not given) | 1.5 µM

// each compound listed below needs its IC50
1. COc1ccc(C2CC(=O)Oc3ccc4cc(Br)ccc4c32)cc1 (stereo not given)
2. Cc1ccc2c3c(ccc2c1)OC(=O)CC3c1cccc(C#N)c1 (stereo not given)
3. COc1cccc(C2CC(=O)Oc3ccc4cc(Br)ccc4c32)c1 (stereo not given)
4. Cc1ccc2c3c(ccc2c1)OC(=O)CC3c1ccccc1 (stereo not given)
5. Cc1ccc2c3c(ccc2c1)OC(=O)CC3c1cccc(C(N)=O)c1 (stereo not given)

result:
["5.4 µM", "3.1 µM", "2.3 µM", "10.6 µM", "20 µM"]

====

Molecular target: NAD-dependent protein deacetylase sirtuin-2 (Homo sapiens) (UniProt Q8IXJ6)
Test: Inhibition of human recombinant Sirt2 expressed in Escherichia coli BL21 at 40 uM by fluorescent deacetylase assay
observation_type: inhibition

// solved cases for inhibition follow
O=C1CC(c2ccc(F)cc2)c2c(ccc3ccccc23)N1 (centres undefined) | 16.9%
O=C1CC(c2ccccc2)c2c(ccc3ccccc23)O1 (centres undefined) | 49.1%
O=C1CC(c2ccccc2)c2c(ccc3cc(-c4ccccc4)ccc23)O1 (centres undefined) | 26.2%
O=C1CC(c2ccccc2)c2c(cc(Br)c3cc(Br)ccc23)O1 (centres undefined) | 9.6%
O=C1CC(c2ccccc2)c2c(ccc3ccccc23)N1 (centres undefined) | 31.5%

// each compound listed below needs its inhibition
1. N#Cc1ccc2c3c(ccc2c1)OC(=O)CC3c1ccccc1 (centres undefined)
2. O=C1CC(c2ccc(-c3ccccc3)cc2)c2c(ccc3ccccc23)N1 (centres undefined)
3. CCc1ccc2c3c(ccc2c1)OC(=O)CC3c1ccccc1 (centres undefined)

result:
1: 25.9%; 2: 4.2%; 3: 25.6%

query: Can you share its inhibition? I mean this compound: O=C1CC(Cc2ccccc2)c2c(ccc3cc(Br)ccc23)O1 (centres undefined)
result: 21.1%

Reference source for all entries: ChEMBL document CHEMBL1143139
